Assay: Phase 1 Part A: single ascending dose PK of Compound I (75 mg HME tablet) in healthy subjects
Format: in vivo, human
Conditions: human, in vivo, oral; single dose 900 mg, 75 mg HME tablet, fasted, N = 6; geometric mean (CV %); read-out: Vz/F
Assay readout: Vd/F
Give the number first and the unit second.

The recorded Vd/F for O=C(c1c(F)ccc(NS(=O)(=O)N2CC[C@@H](F)C2)c1F)c1c[nH]c2ncc(-c3cnc(C4CC4)nc3)cc12 is 293 L

* * *

Assay: Phase 1 Part A: single ascending dose PK of Compound I (75 mg HME tablet) in healthy subjects
Format: in vivo, human
Conditions: human, in vivo, oral; single dose 300 mg, 75 mg HME tablet, fasted, N = 5; geometric mean (CV %)
Assay readout: half-life (h)
Return type: number; implicit unit h.

Item: O=C(c1c(F)ccc(NS(=O)(=O)N2CC[C@@H](F)C2)c1F)c1c[nH]c2ncc(-c3cnc(C4CC4)nc3)cc12 | half-life: 9.56

* * *

Assay: Phase 1 Part A: single ascending dose PK of Compound I (75 mg HME tablet) in healthy subjects
Format: in vivo, human
Details: human, in vivo, oral, 300 mg, single dose 300 mg, 75 mg HME tablet, fasted, N = 5; geometric mean (CV %); read-out: AUC0-t
Assay readout: AUC(0-t) (ng·h/mL)
API: value field is a number in ng·h/mL; no unit string.

Short answer for O=C(c1c(F)ccc(NS(=O)(=O)N2CC[C@@H](F)C2)c1F)c1c[nH]c2ncc(-c3cnc(C4CC4)nc3)cc12 [Compound I] : AUC(0-t) was 12900
